From: patent US7585895B2

- test-target: hEP3A/Gqi5 (Homo sapiens)
- Construct: expressed in transfected cells
- Sequence (P43115 whole entry): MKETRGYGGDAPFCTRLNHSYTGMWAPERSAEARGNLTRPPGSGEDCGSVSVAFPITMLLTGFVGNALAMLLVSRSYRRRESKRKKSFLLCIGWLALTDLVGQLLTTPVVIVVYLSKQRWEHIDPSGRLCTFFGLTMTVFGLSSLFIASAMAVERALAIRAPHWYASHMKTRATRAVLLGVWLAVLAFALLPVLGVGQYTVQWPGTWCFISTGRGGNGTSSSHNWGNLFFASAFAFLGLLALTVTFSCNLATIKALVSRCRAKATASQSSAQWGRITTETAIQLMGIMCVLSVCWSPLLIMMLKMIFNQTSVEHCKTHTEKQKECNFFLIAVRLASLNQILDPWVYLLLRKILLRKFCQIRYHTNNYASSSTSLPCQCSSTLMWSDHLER
- procedure-text: FLIPR calcium signal, EP3
- Assay type: cell-based
- particulars: HEK-293(EBNA), read-out: Ca2+ Signal-EC50 (nM) EP3
EC50 by entry:
Response body: numeric value in nM, unit text excluded.

O=C(O)CCC/C=C\C[C@@H]1[C@@H](c2ccc(C(O)CCC3CCCCC3)cc2)[C@H](O)C[C@H]1Cl (some centres unmarked): 2220
CC(C)(C)CCCC(O)c1ccc([C@@H]2[C@@H](CCCCCCC(=O)O)[C@H](Cl)C[C@H]2O)cc1 (mixture of isomers): 4450
CCCCCC(O)c1ccc([C@@H]2[C@@H](Cc3cccc(CCC(=O)O)c3)[C@H](Cl)C[C@H]2O)cc1 (some centres unmarked): 4670
CCCCCC(O)c1ccc([C@@H]2[C@@H](C/C=C\CCCC(=O)O)[C@H](Cl)C[C@H]2O)cc1 (single isomer, unassigned) [Entry 13]: 3000

Moving on to the next compound.
Record summary for CCCCCCC(O)c1ccc([C@@H]2[C@@H](C/C=C\CCCC(=O)O)[C@H](Cl)C[C@H]2O)cc1 (some centres unmarked) : reported EC50 = 5930
